# test-target: CDK2/CyclinA2 (Homo sapiens, UniProt P24941)
# Construct: purchased #79599
# assay-details: CDK2 Assay Kit, Kinase-Glo MAX luminescence
# Type: biochemical
# assay-setup: 0.1 µM; one experimental data
# Description: The CDK2 Assay Kit is designed to measure CDK2/CyclinA2 activity for screening and profiling applications, using Kinase-Glo® MAX as a detection reagent. […] After the enzymatic reaction, 50 μl of Kinase-Glo® MAX Luminescence kinase assay solution was added to each reaction and the plates were incubated for 5 min at room temperature. Luminescence signal was measured using a Bio Tek Synergy 2 microplate reader. […] * All the kinase IC20 (µM) were calculated according to the above equations. […]

[
  {
    "smiles-text": "CCOC(=O)CSc1nc2c(F)cc(F)cc2c(=O)n1Cc1ccccc1",
    "inhibition at 0.1 µM": "12.5%"
  },
  {
    "smiles-text": "Cc1cc(Cl)cc2c(=O)n(Cc3ccccc3)c(SCC(=O)NN)nc12",
    "inhibition at 0.1 µM": "42.8%"
  },
  {
    "smiles-text": "NNC(=O)CSc1nc2ccc(Cl)cc2c(=O)n1Cc1ccccc1",
    "inhibition at 0.1 µM": "34.7%"
  },
  {
    "smiles-text": "COc1cc2nc(SCC(=O)NN)n(Cc3ccccc3)c(=O)c2cc1OC",
    "inhibition at 0.1 µM": "44.3%"
  },
  {
    "smiles-text": "CCOC(=O)CSc1nc2ccc(Cl)cc2c(=O)n1Cc1ccccc1",
    "inhibition at 0.1 µM": "31.2%"
  },
  {
    "smiles-text": "CCOC(=O)CSc1nc2cc(OC)c(OC)cc2c(=O)n1Cc1ccccc1",
    "inhibition at 0.1 µM": "40.5%"
  },
  {
    "smiles-text": "CCOC(=O)CSc1nc2ccc(F)cc2c(=O)n1Cc1ccccc1",
    "inhibition at 0.1 µM": "20.7%"
  },
  {
    "smiles-text": "NNC(=O)CSc1nc2ccc(F)cc2c(=O)n1Cc1ccccc1",
    "inhibition at 0.1 µM": "47.1%"
  },
  {
    "smiles-text": "CCOC(=O)CSc1nc2c(C)cc(Cl)cc2c(=O)n1Cc1ccccc1",
    "inhibition at 0.1 µM": "40.5%"
  },
  {
    "smiles-text": "NNC(=O)CSc1nc2c(F)cc(F)cc2c(=O)n1Cc1ccccc1",
    "inhibition at 0.1 µM": "19.9%"
  }
]
